All figures here come from patent US5158970A.

# pKi measurements, system: UniProt:P27028
# Sequence (P27028 21-705): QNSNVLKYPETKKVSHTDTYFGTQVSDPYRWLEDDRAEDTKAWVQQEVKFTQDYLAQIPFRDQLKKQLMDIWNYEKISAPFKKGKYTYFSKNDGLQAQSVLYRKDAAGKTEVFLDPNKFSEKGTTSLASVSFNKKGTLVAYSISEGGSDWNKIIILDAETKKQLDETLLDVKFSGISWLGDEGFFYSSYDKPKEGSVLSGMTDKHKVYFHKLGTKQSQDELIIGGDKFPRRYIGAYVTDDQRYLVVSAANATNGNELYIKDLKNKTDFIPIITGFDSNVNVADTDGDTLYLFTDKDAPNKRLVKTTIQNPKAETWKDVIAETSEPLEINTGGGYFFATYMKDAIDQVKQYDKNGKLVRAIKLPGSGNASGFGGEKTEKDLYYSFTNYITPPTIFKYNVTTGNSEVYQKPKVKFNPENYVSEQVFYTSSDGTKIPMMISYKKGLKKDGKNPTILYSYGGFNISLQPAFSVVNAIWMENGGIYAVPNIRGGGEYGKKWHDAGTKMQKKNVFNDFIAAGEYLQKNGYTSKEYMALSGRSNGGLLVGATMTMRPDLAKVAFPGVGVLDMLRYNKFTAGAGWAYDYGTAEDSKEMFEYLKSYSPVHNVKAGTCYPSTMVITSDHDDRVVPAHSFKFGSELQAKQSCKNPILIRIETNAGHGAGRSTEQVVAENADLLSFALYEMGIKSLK
# log scale: pKi equals minus log10 of the concentration in mol/L

Item `CCOC(OCC)[C@@H]1CCCN1C(=O)[C@@H]1CCC(=O)N1C(=O)CCC(=O)O` has what recorded pKi? 3.00

Proceed to `CCOC(OCC)[C@@H]1CCCN1C(=O)[C@@H]1CCCN1C(=O)CCC(=O)O` 3.43

One more compound: `CCOC(OCC)[C@@H]1CCCN1C(=O)[C@@H]1CCCN1C(=O)OCc1ccccc1` 5.66

What do we get for `CCOC(OCC)[C@@H]1CCCN1C(=O)CN(C)C(=O)CCC(=O)O` ? 3.00
